These data points were gathered from the supplement of paper PMC9112550.

sequences and their reported shrunken log2 fold change
Test system: Escherichia coli TOP10;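 note: peptides expressed intracellularly from a pBAD plasmid library in pooled LB shake-flask culture, induced with 0.3% L-arabinose, DNA abundance read by NGS, three biological replicates, DESeq2 with apeglm shrinkage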
Assay: shrunken log2 fold change of peptide-encoding DNA abundance (4.5 h post-induction vs induction); higher = less antimicrobial activity (less host growth inhibition)
Conditions: time post-induction: 4.5 h; library: site-saturation at positions 5, 18, 19, 20

seq	targetEntity	shrunken log2 fold change
RRIRSRPPRLPRPRPRPGVHPRP	Escherichia coli TOP10	-0.035
RRIRTRPPRLPRPRPRPHLLPRP	Escherichia coli TOP10	-0.411
RRIRMRPPRLPRPRPRPSFIPRP	Escherichia coli TOP10	-0.668
RRIRYRPPRLPRPRPRPVIPPRP	Escherichia coli TOP10	-0.0128
RRIRARPPRLPRPRPRPCPNPRP	Escherichia coli TOP10	-0.0809
RRIRTRPPRLPRPRPRPIHQPRP	Escherichia coli TOP10	0.0323
RRIRNRPPRLPRPRPRPHSAPRP	Escherichia coli TOP10	-0.0468
RRIRERPPRLPRPRPRPKCYPRP	Escherichia coli TOP10	-1.04
RRIRERPPRLPRPRPRPIQDPRP	Escherichia coli TOP10	0.876
RRIRVRPPRLPRPRPRPESDPRP	Escherichia coli TOP10	0.0889
RRIRMRPPRLPRPRPRPLQCPRP	Escherichia coli TOP10	-0.0663
RRIRPRPPRLPRPRPRPEDVPRP	Escherichia coli TOP10	-0.0168
RRIRRRPPRLPRPRPRPKHGPRP	Escherichia coli TOP10	-0.0664
RRIRIRPPRLPRPRPRPKLRPRP	Escherichia coli TOP10	0.349
RRIRSRPPRLPRPRPRPMGVPRP	Escherichia coli TOP10	-0.084
RRIRVRPPRLPRPRPRPDMRPRP	Escherichia coli TOP10	-0.437
RRIRIRPPRLPRPRPRPEQAPRP	Escherichia coli TOP10	0.1
RRIRPRPPRLPRPRPRPAPLPRP	Escherichia coli TOP10	0.407
RRIRPRPPRLPRPRPRPQTVPRP	Escherichia coli TOP10	0.184
RRIRARPPRLPRPRPRPDDAPRP	Escherichia coli TOP10	0.138
RRIRDRPPRLPRPRPRPNRQPRP	Escherichia coli TOP10	-0.0252
RRIRSRPPRLPRPRPRPAEVPRP	Escherichia coli TOP10	-0.0708
RRIRFRPPRLPRPRPRPQKQPRP	Escherichia coli TOP10	-0.199
RRIRNRPPRLPRPRPRPEIHPRP	Escherichia coli TOP10	0.116
RRIRERPPRLPRPRPRPKHVPRP	Escherichia coli TOP10	-0.146
RRIRRRPPRLPRPRPRPSGMPRP	Escherichia coli TOP10	-0.0586
RRIRVRPPRLPRPRPRPSCWPRP	Escherichia coli TOP10	0.178
RRIRLRPPRLPRPRPRPLMWPRP	Escherichia coli TOP10	0.115
RRIRARPPRLPRPRPRPEKCPRP	Escherichia coli TOP10	-0.15
RRIRLRPPRLPRPRPRPGGTPRP	Escherichia coli TOP10	-0.0425
RRIRVRPPRLPRPRPRPLVQPRP	Escherichia coli TOP10	-0.137
RRIRQRPPRLPRPRPRPEDHPRP	Escherichia coli TOP10	-0.0311
RRIRRRPPRLPRPRPRPLKRPRP	Escherichia coli TOP10	0.161
RRIRPRPPRLPRPRPRPSEIPRP	Escherichia coli TOP10	-0.261
RRIRIRPPRLPRPRPRPEPFPRP	Escherichia coli TOP10	0.126
RRIRMRPPRLPRPRPRPRCHPRP	Escherichia coli TOP10	0.133
RRIRPRPPRLPRPRPRPHAIPRP	Escherichia coli TOP10	-0.217
